The values you see were collected from patent US11472778B2.

Target: wild-type GT1a NS3/4A protease (UniProt P27958, C1185S, species not given)
Construct: Ki (nM) GT1a WT NS3/4A Protease
Assay type: biochemical, Hepatitis C virus
Details: read-out: Ki (nM) GT1a WT NS3/4A Protease; Table 1
// reported log10(Ki) per item
Annotation: log10 of Ki, nM basis.

O=C(N[C@H]1CCCCC/C=C\[C@@H]2C[C@@]2(C(=O)NS(=O)(=O)C2CC2)NC(=O)[C@@H]2C[C@@H](Oc3nc4ccccc4nc3-c3cccs3)CN2C1=O)OC1CCCC1 [Compound 22f]	0.20
COc1ccc2nc(C(F)(F)F)c(O[C@@H]3C[C@H]4C(=O)N[C@]5(C(=O)NS(=O)(=O)C6(C)CC6)C[C@H]5/C=C\CCCCC[C@H](NC(=O)OC(C)(C)C)C(=O)N4C3)nc2c1 [Compound 19d]	0.76
COc1ccc2nc(C(C)C)c(O[C@@H]3C[C@H]4C(=O)N[C@]5(C(=O)NS(=O)(=O)C6(C)CC6)C[C@H]5/C=C\CCCCC[C@H](NC(=O)OC(C)(C)C)C(=O)N4C3)nc2c1 [Compound 19e]	-0.24

Ask: For CCc1nc2ccccc2nc1O[C@@H]1C[C@H]2C(=O)N[C@]3(C(=O)NS(=O)(=O)C4CC4)C[C@H]3/C=C\CCCCC[C@H](NC(=O)OC(C)(C)C)C(=O)N2C1 [Compound 18g] , write its log10(Ki).
Result: 0.86

Ask: Kindly indicate its recorded log10(Ki). Item: COc1ccc2nc(Cl)c(O[C@@H]3C[C@H]4C(=O)N[C@]5(C(=O)NS(=O)(=O)C6(C)CC6)C[C@H]5/C=C\CCCCC[C@H](NC(=O)OC(C)(C)C)C(=O)N4C3)nc2c1 [Compound 19c]
Result: 0.05

Ask: Item COc1ccc2nc(C(C)C)c(O[C@@H]3C[C@H]4C(=O)N[C@]5(C(=O)NS(=O)(=O)C6CC6)C[C@H]5/C=C\CCCCC[C@H](NC(=O)OC(C)(C)C)C(=O)N4C3)nc2c1 [Compound 18e] : provide log10(Ki)
Result: 0.63

----------
This section presents molecules with their documented EC50 values.
Tested on: HCV replicon D168A variant in Huh7 cells
Assay: microbe, parasite or virus in culture
Assay type: cell-based, Hepatitis C virus
Conditions: Hepatitis C virus, Huh-7, read-out: Replicon EC50 (nM) D168A, Table 4
Please respond with the number in nM and leave the unit unwritten.

Example cases with answers are listed next.
COc1ccc2nc(C)c(O[C@@H]3C[C@H]4C(=O)N[C@]5(C(=O)NS(=O)(=O)C6CC6)C[C@H]5/C=C\CCCCC[C@H](NC(=O)OC(C)(C)C)C(=O)N4C3)nc2c1 [Compound 18b]	4.24
CCc1nc2ccc(OC)cc2nc1O[C@@H]1C[C@H]2C(=O)N[C@]3(C(=O)NS(=O)(=O)C4CC4)C[C@H]3/C=C\CCCCC[C@H](NC(=O)OC3CCCC3)C(=O)N2C1 [Compound 22a]	3.6
COc1ccc2nc(Cl)c(O[C@@H]3C[C@H]4C(=O)N[C@]5(C(=O)NS(=O)(=O)C6(C)CC6)C[C@H]5/C=C\CCCCC[C@H](NC(=O)OC(C)(C)C)C(=O)N4C3)nc2c1 [Compound 19c]	1.07
COc1ccc2nc(C(C)C)c(O[C@@H]3C[C@H]4C(=O)N[C@]5(C(=O)NS(=O)(=O)C6(C)CC6)C[C@H]5/C=C\CCCCC[C@H](NC(=O)OC(C)(C)C)C(=O)N4C3)nc2c1 [Compound 19e]	11.9
COc1ccc2nc(C(F)(F)F)c(O[C@@H]3C[C@H]4C(=O)N[C@]5(C(=O)NS(=O)(=O)C6CC6)C[C@H]5/C=C\CCCCC[C@H](NC(=O)OC(C)(C)C)C(=O)N4C3)nc2c1 [Compound 18d]	16.8

Ask: Enter EC50 (test system HCV replicon D168A variant in Huh7 cells) for COc1ccc2nc(C)c(O[C@@H]3C[C@H]4C(=O)N[C@]5(C(=O)NS(=O)(=O)C6(C)CC6)C[C@H]5/C=C\CCCCC[C@H](NC(=O)OC(C)(C)C)C(=O)N4C3)nc2c1 [Compound 19b]
Result: 2.37

Ask: Provide EC50, tested on HCV replicon D168A variant in Huh7 cells, for COc1ccc2nc(C(F)(F)F)c(O[C@@H]3C[C@H]4C(=O)N[C@]5(C(=O)NS(=O)(=O)C6(C)CC6)C[C@H]5/C=C\CCCCC[C@H](NC(=O)OC(C)(C)C)C(=O)N4C3)nc2c1 [Compound 19d] .
Result: 8.64

Ask: Give reported EC50 for COc1ccc2nc(C(F)(F)F)c(O[C@@H]3C[C@H]4C(=O)N[C@]5(C(=O)NS(=O)(=O)C6(C)CC6)C[C@H]5/C=C\CCCCC[C@H](NC(=O)OC5CCCC5)C(=O)N4C3)nc2c1 [Compound 23d] (HCV replicon D168A variant in Huh7 cells)
Result: 8.46

Ask: // fetch EC50 for COc1ccc2nc(C(F)(F)F)c(O[C@@H]3C[C@H]4C(=O)N[C@]5(C(=O)NS(=O)(=O)C6CC6)C[C@H]5/C=C\CCCCC[C@H](NC(=O)OC5CCCC5)C(=O)N4C3)nc2c1 [Compound 22d] ; system: HCV replicon D168A variant in Huh7 cells
Result: 15.1

Ask: Look up and report EC50, with HCV replicon D168A variant in Huh7 cells as system, for CCc1nc2ccccc2nc1O[C@@H]1C[C@H]2C(=O)N[C@]3(C(=O)NS(=O)(=O)C4CC4)C[C@H]3/C=C\CCCCC[C@H](NC(=O)OC(C)(C)C)C(=O)N2C1 [Compound 18g]
Result: 8.55
